Tested on: mCherry-GAL9 expressing HEK293 cells
assayName: GAL9 recruitment assay, HEK293
Assay type: cell-based
condition: EEE 1.25 µM, calculated mean from >3 independent exp.
Examples of molecules with documented Gal9 response compared to reference follow.

Use these answered entries as a reference point.
CCOc1nn(C2CCN(C)CC2)cc1Nc1ncc(C(F)(F)F)c(-c2c[nH]c3ccccc23)n1 0.015
COc1nn(C2CCNCC2)cc1Nc1ncc(F)c(-n2ccc3c(C#N)cccc32)n1 0.648
COc1nn(C2CCN(C)CC2)cc1Nc1ncc(F)c(-n2ccc3ccc(C#N)cc32)n1 0.018

Here's the next entry for you.
Sure, the documented Gal9 response compared to reference for COc1nn(C2CCNCC2)cc1Nc1ncc(C(F)(F)F)c(-c2c[nH]c3ccccc23)n1 is 0.014

----------
Tested on: mCherry-GAL9 expressing HeLa cells
assayName: GAL9 recruitment assay, HeLa
Assay type: cell-based
condition: EEE 10 µM, calculated mean from >3 independent exp.
Answer False if Gal9 response compared to reference is under 0.008, and True if it is 0.008 or more.

Recorded results for 2 molecules are shown here.
COc1nn(C2CCN(C)CC2)cc1Nc1ncc(Cl)c(-n2ccc3c(C#N)cccc32)n1 True
CCOc1nn(C2CCN(C)CC2)cc1Nc1ncc(C(F)(F)F)c(-c2c[nH]c3ccccc23)n1 False

## Input Can COc1nn(C2CCN(C)CC2)cc1Nc1ncc(F)c(-n2ccc3ccc(C#N)cc32)n1 be said to have Gal9 response compared to reference at or above 0.008?
## Output True

## Input Can COc1nn(C2CCN(C)CC2)cc1Nc1ncc(C(F)(F)F)c(-n2ccc3c(C#N)cccc32)n1 be said to have Gal9 response compared to reference at or above 0.008?
## Output False

----------
Test system: mCherry-GAL9 expressing HEK293 cells
assayName: GAL9 recruitment assay, HEK293
Type: cell-based
condition: EEE 0.62 µM, calculated mean from >3 independent exp.
observedProperty: Gal9 response compared to reference
No unit in the answer, please; the number alone is enough.

Sure, the documented Gal9 response compared to reference for COc1nn(C2CCN(C(C)C)CC2)cc1Nc1ncc(F)c(-n2ccc3c(C#N)cccc32)n1 is 0.032

Sure, the documented Gal9 response compared to reference for COc1nn(C2CCN(C)CC2)cc1Nc1ncc(F)c(-n2ccc3c(C#N)cccc32)n1 is 0.052

Sure, the documented Gal9 response compared to reference for COc1nn(C2CCNCC2)cc1Nc1ncc(C(F)(F)F)c(-c2c[nH]c3ccccc23)n1 is 0.019

----------
Test system: mCherry-GAL9 expressing HEK293 cells
assayName: GAL9 recruitment assay, HEK293
Assay type: cell-based
condition: EEE 0.62 µM, calculated mean from >3 independent exp.
Answer false (0) if Gal9 response compared to reference is under 0.02, and true (1) if it is 0.02 or more.

CCN1CCC(n2cc(Nc3ncc(F)c(-n4ccc5c(C#N)cccc54)n3)c(OC)n2)CC1 true (1)
COc1nn(C2CCNCC2)cc1Nc1ncc(F)c(-c2c[nH]c3ccccc23)n1 false (0)
COc1nn(C2CCN(C)CC2)cc1Nc1ncc(F)c(-n2ccc3ccc(C#N)cc32)n1 false (0)
CCOc1nn(C2CCN(C)CC2)cc1Nc1ncc(F)c(-n2ccc3c(C#N)cccc32)n1 true (1)
CCCN1CCC(n2cc(Nc3ncc(F)c(-n4ccc5c(C#N)cccc54)n3)c(OC)n2)CC1 true (1)

Now look at this entry.
## Input Can COc1nn(C2CCNCC2)cc1Nc1ncc(F)c(-n2ccc3c(C#N)cccc32)n1 be said to have Gal9 response compared to reference at or above 0.02?
## Output true (1)
